The entries below come with measured TGI values attached.
Test system: ACHN renal
assayComment: NCI tumour cell line growth inhibition, 48 h
*1 amine or outer side, *2 acyl side, *3 side chain or, on linkers, in order; H or OH if unused. Where a SMILES comes first, the peptide text is derived from it. CO = O=C([*:1])[*:2]

| compound | TGI |
| --- | --- |
| CCC(=O)Nc1ccc2c(c1)CN1C(=O)c3ccccc3C1=N2 | > 100 µM |
| C=CCNC(NCC=C)=C(C(Cl)=C(Cl)Cl)[N+](=O)[O-] | > 100 µM |
| CCOP(=O)(CCC(O)CNc1nc(N)nc(Cl)c1N=Nc1ccc(Cl)cc1)OCC (stereo not given) | 31.6 µM |
| CC(C)C(NC(=O)C(CCCN=C(N)N)NC(=O)NC(Cc1ccccc1)C(=O)O)C(=O)NC(C=O)CCCN=C(N)N (stereo not drawn) ({Phe-CO}-Arg-Val-Arg-aldehyde; configuration not given here) | > 5 µM |
| CC1=C(N(C)C)C(=O)c2nc3n(c2C1=O)CCC3OC(N)=O (stereo not given) | 30.4 µM |
| O=C(/C=C/C12c3ccccc3C(c3ccccc31)C1C(=O)NC(=O)C12)c1ccco1 (stereo not given) | 12.3 µM |
| CC(C)CC(NC(=O)OCc1ccccc1)C(=O)NCCCCC(N)C(=O)NC(CCCCNC(=O)C(CC(C)C)NC(=O)OCc1ccccc1)C(=O)NC(CCCCNC(=O)C(CC(C)C)NC(=O)OCc1ccccc1)C(=O)NC(CCCCNC(=O)C(CC(C)C)NC(=O)OCc1ccccc1)C(=O)NC(CCCCNC(=O)C(CC(C)C)NC(=O)OCc1ccccc1)C(=O)NC(CCCCNC(=O)C(CC(C)C)NC(=O)OCc1ccccc1)C(=O)O (stereo not given) | > 100 µM |
| CCCN(CCC)C(=S)N/N=C/c1cccc(C)n1 | 0.821 µM |
| COc1ccc(C2c3cc4c(cc3OC(O)(CO)C2C(=O)O)OCO4)c(OC)c1OC (stereo not given) (tested in a mixture with another compound) | > 100 µM |
| COC(=O)C(Cc1ccccc1)C(=O)NC(CNC(=O)OCc1ccccc1)C(=O)OCc1ccccc1 (stereo not given) | > 100 µM |
| O=C1CCC(NC(=O)Cc2ccc(O)cc2)C(=O)N1 (stereo not given) | > 2500 µM |
| N#Cc1c(SCc2ccccc2)nc2[nH]c(=S)[nH]c(=S)c2c1-c1ccco1 | > 100 µM |
| O=S(=O)([N-]c1nc2ccccc2nc1-[n+]1ccccc1)c1ccccc1 | > 100 µM |
| Cc1c(C(=O)Nc2ccc(Cl)c(C(F)(F)F)c2)oc2cc(O)ccc2/c1=N\NC(N)=S | > 100 µM |
| COc1nc(C#CCCCC#N)nc(OC)n1 | 21.8 µM |
| CC(=O)Oc1cc2c(=O)oc3c(OC(C)=O)c(OC(C)=O)c(OC(C)=O)c4c(=O)oc(c1OC(C)=O)c2c34 | > 100 µM |
| O=C(CSc1nc2sc3c(c2c(=O)n1-c1ccccc1)CCCCC3)N/N=C/c1ccc(F)cc1 | 34.6 µM |
| CCOC(=O)c1ccc(C(O)CC(=O)OC(C)(C)C)[nH]1 (stereo not given) | > 100 µM |
| Cc1ccc(NC(=O)/C(=N/NC(=O)CC#N)C2C(=O)N(c3ccccc3)N=C2N)cc1C (stereo not given) | > 100 µM |
| CSC1=N/C(=C\c2ccc(Cl)cc2)C(=O)N1CN1CCOCC1 | > 100 µM |

* * *

Tested on: HOP-62 NSCLC
assayComment: NCI tumour cell line growth inhibition, 48 h
The entries below come with measured TGI values attached.

| molecule | target | TGI |
| --- | --- | --- |
| CC1(C)C[C@H]2C3=CC[C@@H]4[C@@]5(C)CC[C@H](O)C(C)(C)[C@@H]5CC[C@@]4(C)[C@]3(C)C[C@@H](O)[C@@]23C[C@@H]1OC3=O | HOP-62 NSCLC | > 100 µM |
| O=c1[nH]cnc2c1nnn2[C@@H]1O[C@H](CO)[C@@H](O)[C@H]1O | HOP-62 NSCLC | > 100 µM |
| COc1ccc(/C=c2/[nH]c(=O)/c(=C\c3ccc(OCc4ccccc4)cn3)[nH]c2=O)cc1 | HOP-62 NSCLC | > 100 µM |
| COc1ccc(C(=O)c2ccc(OC)cc2OC)cc1 | HOP-62 NSCLC | > 100 µM |
| CC(C)[Si](OCC/C=C/C1CCC(=O)C1C(O)C1CCCCC1)(C(C)C)C(C)C (centres undefined) | HOP-62 NSCLC | 31.3 µM |
| CC(=O)/C(=C/N1C(=O)CC(=O)NC1=S)C(=O)Nc1ccccc1C | HOP-62 NSCLC | 64.2 µM |
| CN1CCN(Cc2ccc(NC(=O)c3[nH]ncc3Nc3ccnc4ccsc34)cc2)CC1 | HOP-62 NSCLC | 14.2 µM |
| O=C1CC(N2C(=O)/C(=C/C(Cl)=C\c3ccc([N+](=O)[O-])cc3)SC2=S)C(=O)N1c1ccc(Cl)cc1 (centres undefined) | HOP-62 NSCLC | 5.5 µM |
| COc1ccc2c(c1)C(=O)c1c-2c(N2CCN(C(=O)CN(C)C)CC2)nc2ccccc12 | HOP-62 NSCLC | 29.2 µM |
| COc1ccc2c(c1)CC1NC2Cc2ccccc21 (centres undefined) | HOP-62 NSCLC | > 100 µM |
| COc1ccc(OC)c2c(=O)cc(-c3ccccc3)[nH]c12 | HOP-62 NSCLC | > 100 µM |
| CC1=C/C(=N\N(C)C)C(C(O)(C(F)(F)F)C(F)(F)F)C(C)(C)C1 (centres undefined) | HOP-62 NSCLC | > 100 µM |
| N#Cc1c(N)nc(N2CCOCC2)c(C#N)c1-c1cccc(O)c1 | HOP-62 NSCLC | > 100 µM |
| C=CCNC(NCC=C)=C(C(Cl)=C(Cl)Cl)[N+](=O)[O-] | HOP-62 NSCLC | > 100 µM |

* * *

System: CAKI-1 renal
assayComment: NCI tumour cell line growth inhibition, 48 h
The entries below come with measured TGI values attached.

| compound | TGI |
| --- | --- |
| O=C(O)c1ccccc1C(=O)OCC1CCCN2CCCCC12 (centres undefined) | > 100 µM |
| C=CCOCCCC(=O)C(=[N+]=[N-])C(=O)OC | > 100 µM |
| CN1CCC23c4ccccc4NC1C21CCN(C)C3Nc2ccccc21 | > 164 µM |
| O=C(CC1(O)C(=O)Nc2ccccc21)c1ccc(O)cc1O (centres undefined) | > 100 µM |
| COc1ccc(C(=O)c2ccc(OC)cc2OC)cc1 | > 100 µM |
| CNC(=O)c1ccc(Nc2nc(OC3CCCC3)c3c(-c4ccc5nc(C)oc5c4)c[nH]c3n2)c(OC)c1 | > 100 µM |
| CC1=CC[C@@]2(C)[C@@H]([C@@H]1C)[C@H]1CC[C@@H]3[C@@]4(C)CC[C@H](O)C(C)(C)[C@@H]4CC[C@@]3(C)[C@]1(C)C[C@@H]2O | > 83.2 µM |
| C[C@]12CC[C@@H]3c4ccc(OCC(=O)O)cc4CC[C@H]3[C@@H]1CCC2=O | > 100 µM |
| CO[C@H]1C[C@@H]2CC[C@@H](C)[C@@](O)(O2)C(=O)C(=O)N2CCCC[C@H]2C(=O)O[C@H]([C@H](C)C[C@@H]2CC[C@@H](OC(=O)C(C)(CO)CO)[C@H](OC)C2)CC(=O)[C@H](C)/C=C(\C)[C@@H](O)[C@@H](OC)C(=O)[C@H](C)C[C@H](C)/C=C/C=C/C=C/1C | > 79.7 µM |

* * *

System: CCRF-CEM leukemia
assayComment: NCI tumour cell line growth inhibition, 48 h; in the data active = GI50 below about 0.43 µM; inactive = the rest
Outcome codes: class 1 (active), class 0 (inactive)

| givenSmiles | target | labelValue |
| --- | --- | --- |
| O=C(CSc1nc2sc3c(c2c(=O)n1-c1ccccc1)CCCCC3)N/N=C/c1ccc(F)cc1 | CCRF-CEM leukemia | class 0 |
| CCOC(=O)c1ccc2[nH]c(Cc3[nH]c4ccc(C(=O)OCC)cc4c3C)c(C)c2c1 | CCRF-CEM leukemia | class 0 |
| CN1CCN(Cc2ccc(NC(=O)c3[nH]ncc3Nc3ccnc4ccsc34)cc2)CC1 | CCRF-CEM leukemia | class 0 |
| Cc1cc(Nc2ncc(Cl)c(Nc3ccccc3S(=O)(=O)C(C)C)n2)c(OC(C)C)cc1C1CCNCC1 | CCRF-CEM leukemia | class 0 |
| O=C(Nc1nc(-c2ccc(Cl)cc2)cs1)c1ccc(O)c(O)c1 | CCRF-CEM leukemia | class 0 |
| O=S(=O)(NCCNc1cc(-c2cn(-c3ccccc3)nc2-c2cccc(O)c2)ccn1)c1ccc(F)cc1 | CCRF-CEM leukemia | class 0 |
| C=C1C(=O)O[C@H]2[C@H]1CC/C(COC(=O)N[C@@H](Cc1c[nH]c3ccccc13)C(=O)OC)=C\CC[C@@]1(C)O[C@@H]21 | CCRF-CEM leukemia | class 0 |
| COc1cc2c3c(n(CCCn4ccnc4)c(=O)c2cc1OC)-c1ccccc1C3=O | CCRF-CEM leukemia | class 1 |
| CNC(=O)c1ccc(Nc2nc(OC3CCCC3)c3c(-c4ccc5nc(C)oc5c4)c[nH]c3n2)c(OC)c1 | CCRF-CEM leukemia | class 1 |
